Taken from the supplement of paper PMC12667976.

Assign AIRE transcriptional activation functional score to each entry below.
B1: library; numbered along this chain (parent)
chain: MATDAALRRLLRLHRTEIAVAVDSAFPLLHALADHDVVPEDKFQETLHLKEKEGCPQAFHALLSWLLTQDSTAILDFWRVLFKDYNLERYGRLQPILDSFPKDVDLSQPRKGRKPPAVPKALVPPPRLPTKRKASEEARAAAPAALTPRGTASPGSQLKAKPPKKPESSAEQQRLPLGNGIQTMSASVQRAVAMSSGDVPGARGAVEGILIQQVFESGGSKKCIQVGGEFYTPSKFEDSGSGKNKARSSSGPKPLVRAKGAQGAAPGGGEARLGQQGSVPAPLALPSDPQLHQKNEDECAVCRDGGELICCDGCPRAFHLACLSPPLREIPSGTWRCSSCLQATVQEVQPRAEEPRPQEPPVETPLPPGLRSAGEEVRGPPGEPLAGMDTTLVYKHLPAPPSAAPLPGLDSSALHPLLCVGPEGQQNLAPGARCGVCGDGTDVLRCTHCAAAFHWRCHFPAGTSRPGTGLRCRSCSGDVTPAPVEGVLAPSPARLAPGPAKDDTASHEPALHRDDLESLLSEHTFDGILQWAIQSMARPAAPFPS

variants of: B1; experiment: AIRE transcriptional activation functional score (insulin promoter-GFP; nonsense median 0, synonymous median 1) (normalised score); higher = higher AIRE activity (more reporter activation); settings: with insulin promoter-GFP reporter in HEK293
Numbers only.

Take a look at these entries with their results.
| MUTANT LABEL | OBSERVED MEASUREMENT |
| --- | --- |
| A191H | 1.25 |
| S168T | 1.06 |
| L409N | 0.459 |
| Q262T | 0.795 |
| A493D | 0.802 |
| G467E | 1.16 |
| L397Y | 0.779 |
| N295L | 1.17 |

# per-item lookup of AIRE transcriptional activation functional score; items listed below
1. T232S
2. A202H
3. R139Q
4. R8E

Output line:
1: 1.15; 2: 1; 3: 1.35; 4: -0.344
